assay: Cytotoxicity against human MT4 cells; format: cell-based
Criterion: CC50 strictly less than 40 µM. Met: class 1. Not met: class 0.

mol_smiles=COC(=O)c1nc(S)n(Nc2cccc(Cl)c2)c1C category_label="class 0"
mol_smiles=Cc1cccc(Nn2cnc(C)c2-c2cccc(N)c2)c1 category_label="class 0"
mol_smiles=Cc1[nH]c(=S)n(Nc2ccccc2Cl)c1-c1ccccc1 category_label="class 0"
mol_smiles=Cc1cccc(Nn2c(-c3ccccc3)c(C(C)C)[nH]c2=S)c1 category_label="class 0"
mol_smiles=Cc1nc(S)n(Nc2cccc(Cl)c2)c1-c1cccc(N)c1 category_label="class 0"
mol_smiles=Cc1cccc(Nn2c(S)nc(C)c2-c2cccc(C#N)c2)c1 category_label="class 0"
mol_smiles=Cc1cccc(Nn2cnc(C)c2-c2cccc(C#N)c2)c1 category_label="class 0"
mol_smiles=COc1cccc(Nn2c(S)nc(C)c2-c2ccccc2)c1 category_label="class 1"
mol_smiles=Cc1ncn(Nc2cccc(Cl)c2)c1C category_label="class 0"
mol_smiles=Cc1[nH]c(=S)n(Nc2cccc(Cl)c2)c1-c1ccccc1 category_label="class 0"
mol_smiles=Cc1[nH]c(=S)n(Nc2cccc(Br)c2)c1-c1ccccc1 category_label="class 0"
mol_smiles=Cc1nc(S)n(Nc2ccccc2)c1C category_label="class 0"
mol_smiles=COc1ccc(-c2c(C)[nH]c(=S)n2Nc2cccc(Cl)c2)cc1 category_label="class 1"
mol_smiles=COC(=O)c1c(C)nc(S)n1Nc1cccc(Cl)c1 category_label="class 0"
mol_smiles=Cc1nc(S)n(Nc2cccc(Cl)c2)c1-c1cccc(C#N)c1 category_label="class 0"
mol_smiles=Clc1cccc(Nn2cnc3c2CCCC3)c1 category_label="class 0"
mol_smiles=Cc1ncn(Nc2cccc(Cl)c2)c1-c1cccc(Cl)c1 category_label="class 1"
mol_smiles=Cc1ncn(Nc2ccccc2)c1C category_label="class 0"
mol_smiles=COC(=O)c1cccc(-c2c(C)nc(S)n2Nc2cccc(Cl)c2)c1 category_label="class 0"
mol_smiles=Cc1ccc(Nn2c(-c3ccccc3)c(C)[nH]c2=S)cc1C category_label="class 0"
mol_smiles=Cc1ncn(Nc2cccc(Cl)c2)c1-c1cccc(C#N)c1 category_label="class 1"
mol_smiles=Cc1nc(S)n(Nc2cc(Cl)ccc2Cl)c1-c1ccccc1 category_label="class 0"
mol_smiles=CCc1ncn(Nc2cccc(C)c2)c1-c1ccccc1 category_label="class 1"
mol_smiles=Cc1[nH]c(=S)n(Nc2cccc(Cl)c2)c1-c1cccc(Br)c1 category_label="class 0"
mol_smiles=Cc1cccc(Nn2cnc(C)c2C)c1 category_label="class 0"
mol_smiles=CSc1ccc(Nn2c(S)nc(C)c2-c2ccccc2)cc1 category_label="class 0"
mol_smiles=Cc1ncn(Nc2cccc(Cl)c2)c1-c1cccc(Br)c1 category_label="class 1"
mol_smiles=Cc1nc(S)n(Nc2cccc(Cl)c2)c1C category_label="class 0"
mol_smiles=Cc1[nH]c(=S)n(Nc2ccc(Cl)cc2)c1-c1ccccc1 category_label="class 0"
mol_smiles=Cc1ncn(Nc2ccc(F)cc2)c1-c1ccccc1 category_label="class 1"
mol_smiles=Cc1nc(S)n(Nc2cccc(Cl)c2)c1-c1cccc(C(=O)O)c1 category_label="class 0"
mol_smiles=Cc1ncn(Nc2cccc(Cl)c2)c1-c1ccccc1 category_label="class 1"
mol_smiles=COC(=O)c1cccc(-c2c(C)ncn2Nc2cccc(Cl)c2)c1 category_label="class 1"
mol_smiles=Cc1ncn(Nc2ccccc2)c1-c1ccccc1 category_label="class 0"
mol_smiles=Cc1cccc(Nn2c(S)nc(C)c2C)c1 category_label="class 0"
mol_smiles=Cc1cccc(Nn2cnc(C)c2-c2ccccc2)c1 category_label="class 1"
mol_smiles=Cc1cc(C)cc(Nn2c(-c3ccccc3)c(C)[nH]c2=S)c1 category_label="class 0"
mol_smiles=Cc1cccc(Nn2c(S)nc(C)c2-c2cccc(C(=O)O)c2)c1 category_label="class 0"
mol_smiles=CCc1ccc(Nn2c(S)nc(C)c2-c2ccccc2)cc1 category_label="class 1"
mol_smiles=Cc1nc(S)n(Nc2cccc3ccccc23)c1-c1ccccc1 category_label="class 1"
mol_smiles=Cc1[nH]c(=S)n(Nc2cccc(Cl)c2)c1-c1cccc(Cl)c1 category_label="class 1"
mol_smiles=CCc1[nH]c(=S)n(Nc2cccc(C)c2)c1-c1ccccc1 category_label="class 0"
mol_smiles=Sc1nc2c(n1Nc1cccc(Cl)c1)CCCC2 category_label="class 0"
mol_smiles=Cc1ncn(Nc2cccc(Cl)c2)c1-c1cccc(N)c1 category_label="class 0"
mol_smiles=Cc1ccc(Nn2c(-c3ccccc3)c(C)[nH]c2=S)cc1Cl category_label="class 0"
mol_smiles=Cc1[nH]c(=S)n(Nc2ccccc2)c1-c1ccccc1 category_label="class 0"
mol_smiles=Cc1ncn(Nc2cccc(Cl)c2)c1-c1cccc(C(=O)O)c1 category_label="class 0"
mol_smiles=COC(=O)c1c(C)ncn1Nc1cccc(Cl)c1 category_label="class 0"
mol_smiles=Cc1cc(C)cc(Nn2cnc(C)c2-c2ccccc2)c1 category_label="class 1"

The reported numbers originate from ChEMBL document CHEMBL1158352.
